Field: INHIBITION. Provide a value for each of the molecules that follow.
System: Plasmodium berghei
Assay: Screen against P. berghei liver stage (PbLuc), transformed with Luciferase, at 2uM
Type: functional, HepG2
Conditions: tested at 2 uM
About 2,700 (4%) of roughly 68,000 compounds showed an effect of 50% or more. What follows is part of a selection rich in strong results, with near analogues and random picks from the rest.
Return type: number; implicit unit %.

Prompt: Recorded INHIBITION of CCC1=N[C@@]2(CC[C@@H]3CN(S(=O)(=O)CC(C)C)C[C@@H]32)C(=O)N1CC , please.
Response: 47.53

Prompt: Would you kindly share the measured INHIBITION for Cn1nc(C2CCN(C(=O)c3cnccn3)C2)cc1CCO (centres undefined) ?
Response: -18.15

Prompt: Recorded INHIBITION for O=c1ccc2c([nH]1)CCN(S(=O)(=O)c1ccc3c(c1)OCCO3)C2 , please?
Response: 14.45

Prompt: What value of INHIBITION has been reported for the following molecule? CCN(CCO)C(=O)C1CCC(=O)N(CCc2cccc(F)c2)C1 (centres undefined)
Response: 30.62

Prompt: Data request, read-out INHIBITION, for Cc1cc(C)nc(N2CCOC(C)(C(=O)N(C)C)C2)n1 (centres undefined)
Response: 19

Prompt: For O=C1CC(c2ccc(CO)o2)c2cnn(Cc3ccco3)c2N1 (centres undefined) , what is its reported INHIBITION?
Response: -1.11

Prompt: Tell me the measured INHIBITION of Cc1ccn(CCC(=O)NCc2ccc(C)o2)n1 , please.
Response: 19.49

Prompt: Query (molecule): CCC(CC)c1cc(CNC(=O)N2CCOCC2CC)on1 (centres undefined) ; field requested: INHIBITION
Response: -8.83

Prompt: // returns reported INHIBITION for input CCOCCOC(C)C(=O)NCc1cn2cc(Cl)ccc2n1 (centres undefined)
Response: 52.74

Prompt: Need INHIBITION of CN(C)C(=O)CN1CCOCC2(CCN(CC3CCOCC3)CC2)C1 , thanks.
Response: 12.68

Prompt: Look at this molecule and give its reported INHIBITION. CCOc1ccc(C(=O)N(Cc2cnn(C)c2)C(C)C)cc1OCC
Response: 23.42

Prompt: Give the measured INHIBITION of CN(C)C(=O)CN1CCOCC2(CCN(CC3CCOC3)CC2)C1 (centres undefined) .
Response: 82.53

Prompt: I am curious: what INHIBITION value has been reported for CCC[C@H]1CN(Cc2cc(C#N)n(C)c2C)C[C@@H]1NS(=O)(=O)CC ?
Response: 35.26

Prompt: What does the data say about its INHIBITION? Entry: CCC[C@H]1CN(Cc2cc(C#N)n(C)c2C)C[C@@H]1N(C)C
Response: 51.4

Prompt: // INHIBITION lookup, key: CC(C)(C)NC(=O)c1cccc(CN2CCS(=O)(=O)CC2)c1
Response: 12.32

Prompt: Recorded INHIBITION for CC(NC(=O)NCC1(c2ccc(F)cc2)CC1)c1nncn1C (centres undefined) , please?
Response: -7.13

Prompt: What measured INHIBITION goes with COc1ccc(Cc2nnc3n2N=C(C(C)(C)C)CS3)cc1 ?
Response: -13.89

Prompt: Name the recorded INHIBITION for c1ccc(Cn2cc3c(n2)C(COCC2CC2)OCC3)nc1 (centres undefined) .
Response: 7.73

Prompt: Give the measured INHIBITION of CCN(CC)C(=O)C1CCC(=O)N(CCc2cccc(F)c2)C1 (centres undefined) .
Response: 17.48
